Below, each entry is listed alongside its reported CT50, Compound + colistin.
Test system: 4T1 cells
Experiment: MTT cell viability assay
Format: cell-based, mouse
Details: 4T1 cells, 18 h, with 1 μg/mL colistin; concentration giving 50% cell viability

- molecule: "O=C(NCCc1c[nH]c2ccc(Br)cc12)Nc1cc(Cl)c(Br)c(Cl)c1 [Compound 9e]"
  CT50, Compound + colistin, µM: 64.9
- molecule: "O=C(NCCc1c[nH]c2ccc(Br)cc12)Nc1ccc(Cl)c(Cl)c1 [Compound 9d]"
  CT50, Compound + colistin, µM: 84.6
- molecule: "O=C(NCCc1c[nH]c2ccccc12)Nc1cc(C(F)(F)F)cc(C(F)(F)F)c1 [Compound 8c]"
  CT50, Compound + colistin, µM: 61.8
- molecule: "O=C(NCCc1c[nH]c2ccccc12)Nc1cc(Br)cc(Br)c1 [Compound 8b]"
  CT50, Compound + colistin, µM: 64.2
- molecule: "CC(C)n1cc(-c2cccc(NC(=O)Nc3cc(Cl)c(Br)c(Cl)c3)c2)nc1N [Compound 14, reference compound]"
  CT50, Compound + colistin, µM: 15.6
- molecule: "O=C(NCCc1c[nH]c2ccccc12)Nc1ccc(Cl)c(Cl)c1 [Compound 8d]"
  CT50, Compound + colistin, µM: 104.8

----------
Tested on: 4T1 cells
Test: MTT cell viability assay
Assay type: cell-based, mouse
Conditions: 4T1 cells, 18 h, without colistin; concentration giving 50% cell viability

- compound: "CC(C)n1cc(-c2cccc(NC(=O)Nc3cc(Cl)c(Br)c(Cl)c3)c2)nc1N [Compound 14, reference compound]"
  study_system: "4T1 cells"
  CT50, Compound alone / µM: 23.2
- compound: "O=C(NCCc1c[nH]c2ccc(Br)cc12)Nc1ccc(Cl)c(Cl)c1"
  study_system: "4T1 cells"
  CT50, Compound alone / µM: 125.5
- compound: "O=C(NCCc1c[nH]c2ccccc12)Nc1cc(Br)cc(Br)c1"
  study_system: "4T1 cells"
  CT50, Compound alone / µM: 86.2
- compound: "O=C(NCCc1c[nH]c2ccc(Br)cc12)Nc1cc(Cl)c(Br)c(Cl)c1"
  study_system: "4T1 cells"
  CT50, Compound alone / µM: 94.1
- compound: "O=C(NCCc1c[nH]c2ccccc12)Nc1ccc(Cl)c(Cl)c1"
  study_system: "4T1 cells"
  CT50, Compound alone / µM: 117.3
- compound: "O=C(NCCc1c[nH]c2ccccc12)Nc1cc(C(F)(F)F)cc(C(F)(F)F)c1"
  study_system: "4T1 cells"
  CT50, Compound alone / µM: 60.5

Origin of the recorded values: patent US20230131376A1
